Test system: Vero E6 infected with SARS-CoV-2
assay_text: inhibition of SARS-CoV-2 cytopathic effect; higher = more antiviral protection, active = above 15
setup_conditions: 10000 nM; 48 h
Your reply should match one of these outcome classes. active, inactive

Inquiry: What classification did COc1ccc2c(c1OC)C(=O)O[C@@H]2[C@H]1c2cc3c(cc2CCN1C)OCO3 [hydrastine-(1R,9S)] end up with in this test?
Reply text: inactive

Inquiry: What did the test return for C[N+](C)(C)CCOC(=O)CCC(=O)OCC[N+](C)(C)C [succinylcholine-chloride] ?
Reply text: inactive

Inquiry: Per the records of this test, what outcome belongs to C/C(=C\C(=O)Nc1ccccc1C(=O)O)c1ccc2ccccc2c1 ?
Reply text: inactive

Inquiry: What classification did c1ccc([C@@H]2C[C@H]2NC2CCNCC2)cc1 end up with in this test?
Reply text: inactive

Inquiry: For this compound, state the assay outcome: CCCCC#Cc1nc(NC)c2ncn([C@@H]3O[C@H](CO)[C@@H](O)[C@H]3O)c2n1
Reply text: inactive

Inquiry: I'd appreciate the recorded outcome for CC(C)S(=O)(=O)NC[C@H](C)c1ccc(-c2ccc(CCNS(C)(=O)=O)cc2)cc1 from this test.
Reply text: inactive

Inquiry: Which result was noted for this compound in the test: N#Cc1c(O)c2c(-c3ccc(-c4ccccc4O)cc3)csc2[nH]c1=O
Reply text: inactive

Inquiry: Any idea what this test logged for N[C@H]1C(O)O[C@H](CO)[C@@H](O)[C@@H]1O (mixture of isomers) ?
Reply text: inactive

Inquiry: Called result for Cc1ccc(NC(=O)c2ccc(CN3CCN(C)CC3)cc2)cc1Nc1nc(-c2cccnc2)cs1
Reply text: active

Inquiry: Could you check what this test reported for CCOc1ccccc1OCC1CNCCO1 (configuration not stated) ?
Reply text: inactive

Inquiry: Check the results log: what was the call for Oc1ccc(C2(c3ccccc3F)CCC(F)(F)CC2)cc1 ?
Reply text: inactive

Inquiry: Outcome logged for O=C(O)CCCN1C(=O)c2cccc3cccc(c23)C1=O in this assay:
Reply text: inactive

Inquiry: Which outcome was assigned to CC1(C)OC[C@H](NC(=O)Nc2ccc(Br)cc2Br)[C@H](c2ccccc2)O1 in this test?
Reply text: inactive

Inquiry: Give the logged outcome of this assay for the following compound: Cn1cc(/C=C2\C(=O)Nc3cccnc32)c2ccccc21
Reply text: inactive

Inquiry: Could you check what this test reported for CC[C@H](C)[C@H](N)C1=N[C@H](C(=O)N[C@@H](CC(C)C)C(=O)N[C@H](CCC(=O)O)C(=O)N[C@H](C(=O)N[C@H]2CCCCNC(=O)[C@H](CC(N)=O)NC(=O)[C@@H](CC(=O)O)NC(=O)[C@H](Cc3cnc[nH]3)NC(=O)[C@@H](Cc3ccccc3)NC(=O)[C@H]([C@@H](C)CC)NC(=O)[C@@H](CCCN)NC2=O)[C@@H](C)CC)CS1 ?
Reply text: inactive

Inquiry: Dear all, I need the recorded test outcome for N[C@@H](C(=O)O)c1ccc(C(=O)O)c(C(=O)O)c1 (racemic) , thank you.
Reply text: inactive

Inquiry: For CN1CCC2=C(C1)C(c1ccccc1)c1ccccc12 (configuration not stated) , which call appears in the assay record?
Reply text: inactive

====

I'd appreciate it if you could supply inhibition of SARS-CoV-2 cytopathic effect values for the items below.
Tested on: Vero E6 infected with SARS-CoV-2
assay_text: inhibition of SARS-CoV-2 cytopathic effect; higher = more antiviral protection, active = above 15
setup_conditions: 10000 nM; 48 h
Form entry: value (%) — number only.

Looking up CCCCCCNC(=O)n1cc(F)c(=O)[nH]c1=O [carmofur] , I see its inhibition of SARS-CoV-2 cytopathic effect listed as 4.01

inhibition of SARS-CoV-2 cytopathic effect in this record for CC(C)(O)CC[C@@H](O)[C@](C)(O)[C@H]1CC[C@@]2(O)C3=CC(=O)[C@@H]4C[C@@H](O)[C@@H](O)C[C@]4(C)[C@H]3CC[C@]12C [20-hydroxyecdysone] : 1.01

// field: inhibition of SARS-CoV-2 cytopathic effect; key: COc1ccc(O)c(C(C)(C)C)c1.COc1ccc(O)cc1C(C)(C)C [butylated-hydroxyanisole] ; value = -1.88

Per the record, CCNC(=O)[C@@H]1CCCN1C(=O)[C@H](CCCNC(=N)N)NC(=O)[C@H](CC(C)C)NC(=O)[C@@H](C)NC(=O)[C@H](Cc1ccc(O)cc1)NC(=O)[C@H](CO)NC(=O)[C@H](Cc1c[nH]c2ccccc12)NC(=O)[C@H](Cc1cnc[nH]1)NC(=O)[C@@H]1CCC(=O)N1 [alarelin] has inhibition of SARS-CoV-2 cytopathic effect of -0.57

Entry CCN(Cc1ccncc1)C(=O)C(CO)c1ccccc1 (stereo unspecified) [tropicamide] ; inhibition of SARS-CoV-2 cytopathic effect = -2.47

Lookup result for O=C(CCCN1CCC(n2c(=O)[nH]c3ccccc32)CC1)c1ccc(F)cc1 [benperidol] ; measured inhibition of SARS-CoV-2 cytopathic effect: -4.28

The measurements presented in this section are drawn from the supplement of paper PMC13380429.
